// pIC50 lookup, one value per entry
- system: UniProt Q86YT5
- Sequence (Q86YT5 whole entry): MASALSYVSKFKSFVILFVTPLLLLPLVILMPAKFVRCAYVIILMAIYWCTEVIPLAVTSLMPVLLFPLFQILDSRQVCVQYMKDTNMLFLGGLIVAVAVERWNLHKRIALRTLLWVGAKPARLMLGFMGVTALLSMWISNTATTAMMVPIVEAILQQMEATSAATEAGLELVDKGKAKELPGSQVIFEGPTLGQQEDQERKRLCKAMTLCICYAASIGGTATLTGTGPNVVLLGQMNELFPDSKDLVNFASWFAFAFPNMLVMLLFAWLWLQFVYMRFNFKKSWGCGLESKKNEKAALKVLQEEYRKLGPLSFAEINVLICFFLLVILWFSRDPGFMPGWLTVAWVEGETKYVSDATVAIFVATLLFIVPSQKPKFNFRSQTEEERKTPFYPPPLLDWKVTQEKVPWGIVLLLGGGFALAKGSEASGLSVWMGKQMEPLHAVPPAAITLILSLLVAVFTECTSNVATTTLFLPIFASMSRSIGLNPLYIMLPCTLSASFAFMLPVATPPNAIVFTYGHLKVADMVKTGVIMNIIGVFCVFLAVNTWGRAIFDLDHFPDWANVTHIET
- assayName: Fatty acid synthesis (FAS) assay from 14C-citrate in HepG2 cells
- Type: cell-based
- testConditions: 14C-citrate into fatty acids
- Procedure: To test the functional activity of selected compounds and to bridge between the in vitro assay for citrate uptake to the physiological relevant lipid accumulation in liver cells a further functional cell assay was performed. This assay measured the effect of selected compounds on the citrate mediated fatty acid synthesis in hepatocytes. […]
Scale: negative log10 of molar concentration, which is what pIC50 denotes.

substancesmiles=O=C(NCc1ccccn1)C1CCN(S(=O)(=O)c2ccc(C(F)(F)F)cc2)CC1 endpointvalue=5.60
substancesmiles=CC(C)(C)c1ccc(S(=O)(=O)N2CCC(C(=O)NCc3ccccc3F)CC2)cc1 endpointvalue=6.22
substancesmiles=COc1ccccc1CNC(=O)C1CN(S(=O)(=O)c2ccc(C(C)(C)C)cc2)C1 endpointvalue=5.21
substancesmiles=O=C(NCc1ccccc1CO)C1CCN(S(=O)(=O)c2cc(Cl)cc(Cl)c2)CC1 endpointvalue=6.22
substancesmiles=O=C(NCc1ccccc1F)C1CCN(S(=O)(=O)c2cc(Cl)cc(Cl)c2)CC1 endpointvalue=7.52

Provide pIC50 value for the following compound: `O=C(NCc1ccccn1)C1CCN(S(=O)(=O)c2cc(Cl)cc(Cl)c2)CC1` 6.22
